TARGET OR SYSTEM: T1, CD3 epsilon homodimer protein (UniProt P07766 23-126)
T1 construct: also called CD3 (CD3 epsilon)
T1 sequence (P07766 23-126): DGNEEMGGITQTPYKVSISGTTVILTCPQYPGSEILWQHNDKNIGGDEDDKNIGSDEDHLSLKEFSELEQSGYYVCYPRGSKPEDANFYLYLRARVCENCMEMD
ASSAY METHOD TEXT: SPR Biacore T200, CD3e homodimer on chip, vs unaltered GLS3000 antibody

BINDER: GLS3000 H34D (antibody, name in Kabat numbering, V domains shown, one-arm IgG as m2) VH: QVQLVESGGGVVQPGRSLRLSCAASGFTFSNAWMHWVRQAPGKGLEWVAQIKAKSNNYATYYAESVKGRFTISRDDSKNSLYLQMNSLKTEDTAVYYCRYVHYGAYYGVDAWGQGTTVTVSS VL: DIVMTQSPLSLPVTPGEPASISCRSSQSLVHSNRNTYLDWYQQKPGQAPRLLIYKVSNRFSGVPDRFSGSGSGTDFTLKISRVEAEDVGVYYCGQGTQVPYTFGQGTKLEIK
ratio of amounts bound (Z=Y/X): 0.22

Cited source: patent US20210388087A1
